Catalogue of compounds with associated half-life at 0.5 μM
ASSAY_NOTES: in vitro
CONDITIONS_USED: human, liver microsomes, pH 7.4

Example results:
• NC(=O)[C@@H](CC1CC1)[C@@H](CCC(F)(F)F)C(=O)N[C@@H]1C(=O)Nc2c(F)cccc2-c2ccccc21 = ≥ 40 min
• NC(=O)[C@@H](CC1CC(F)(F)C1)[C@@H](CCC(F)(F)F)C(=O)N[C@@H]1C(=O)Nc2ccccc2-c2ccccc21 = ≥ 40 min

## Input Consider the compound NC(=O)[C@@H](CC1CC1)[C@@H](CCC(F)(F)F)C(=O)N[C@@H]1C(=O)Nc2ccccc2-c2ccccc21 and give its measured half-life at 0.5 μM.
## Output ≥ 40 min
